Where do the numbers come from? From ChEMBL document CHEMBL3286240.

Examples of molecules with documented Activity follow.
- Tested on: Enterococcus faecalis
- measurement-notes: Antimicrobial activity against Enterococcus faecalis assessed as bacterial growth at 2.73 ug/ml after 20 hrs by microtiter plate assay
- Assay type: functional

>  <molecule>
COc1ccc(Cl)cc1C1=C(Br)C(=O)N(CC(C)C)/C1=C\c1ccccc1Br

>  <Activity [%]>
44.9

$$$$
>  <molecule>
COc1cccc(CC2(O)C(c3cc(Cl)ccc3OC)=C(Br)C(=O)N2CC(C)C)c1 (stereo not given)

>  <Activity [%]>
9.5

$$$$
>  <molecule>
COc1ccc(Br)cc1C1=C(Br)C(=O)N(CC(C)C)C1(O)Cc1ccc(Br)cc1 (stereo not given)

>  <Activity [%]>
8.9

$$$$
>  <molecule>
COc1ccc(C)cc1C1=C(Br)C(=O)N(CC(C)C)/C1=C/c1ccccc1Cl

>  <Activity [%]>
27.8

$$$$
>  <molecule>
COc1ccc(C)cc1C1=C(Br)C(=O)N(CC(C)C)/C1=C/c1cccc(Cl)c1

>  <Activity [%]>
5

$$$$

###

- Tested on: Enterococcus faecalis
- measurement-notes: Antimicrobial activity against Enterococcus faecalis assessed as bacterial growth at 87.5 ug/ml after 20 hrs by microtiter plate assay
- Assay type: functional
Lab note: anything with Activity below 70% is marked condition met; values at 70% or higher are marked condition not met.

>  <molecule>
COc1ccccc1C1=C(Br)C(=O)O/C1=C\c1ccc(C(F)(F)F)cc1

>  <target-or-test-system>
Enterococcus faecalis

>  <assigned-label>
condition met

$$$$
>  <molecule>
COc1ccc(C)cc1C1=C(Br)C(=O)O/C1=C\c1cccc(Cl)c1

>  <target-or-test-system>
Enterococcus faecalis

>  <assigned-label>
condition met

$$$$
>  <molecule>
COc1ccc(Br)cc1C1=C(Br)C(=O)N(CC(C)C)/C1=C/c1ccc(Br)cc1

>  <target-or-test-system>
Enterococcus faecalis

>  <assigned-label>
condition met

$$$$
>  <molecule>
COc1ccc(Br)cc1C1=C(Br)C(=O)O/C1=C\c1ccc(Br)cc1

>  <target-or-test-system>
Enterococcus faecalis

>  <assigned-label>
condition met

$$$$
>  <molecule>
COc1ccccc1C1=C(Br)C(=O)N(CC(C)C)C1(O)Cc1ccc(C(F)(F)F)cc1 (stereo not drawn)

>  <target-or-test-system>
Enterococcus faecalis

>  <assigned-label>
condition met

$$$$
>  <molecule>
COc1ccc(C)cc1C1=C(Br)C(=O)N(CC(C)C)/C1=C/c1ccccc1Cl

>  <target-or-test-system>
Enterococcus faecalis

>  <assigned-label>
condition not met

$$$$
>  <molecule>
COc1ccc(Br)cc1C1=C(Br)C(=O)N(CC(C)C)/C1=C\c1ccc(Br)cc1

>  <target-or-test-system>
Enterococcus faecalis

>  <assigned-label>
condition not met

$$$$
>  <molecule>
COc1cccc(CC2(O)C(c3cc(Cl)ccc3OC)=C(Br)C(=O)N2CC(C)C)c1 (stereo not drawn)

>  <target-or-test-system>
Enterococcus faecalis

>  <assigned-label>
condition met

$$$$
>  <molecule>
COc1ccc(Cl)cc1C1=C(Br)C(=O)N(CC(C)C)/C1=C\c1ccccc1Br

>  <target-or-test-system>
Enterococcus faecalis

>  <assigned-label>
condition not met

$$$$
>  <molecule>
COc1cccc(/C=C2\OC(=O)C(Br)=C2c2cc(Cl)ccc2OC)c1

>  <target-or-test-system>
Enterococcus faecalis

>  <assigned-label>
condition met

$$$$
>  <molecule>
COc1ccc(C)cc1C1=C(Br)C(=O)N(CC(C)C)/C1=C/c1cccc(Cl)c1

>  <target-or-test-system>
Enterococcus faecalis

>  <assigned-label>
condition not met

$$$$
>  <molecule>
COc1ccc(Br)cc1C1=C(Br)C(=O)N(CC(C)C)/C1=C\c1cccc(Cl)c1

>  <target-or-test-system>
Enterococcus faecalis

>  <assigned-label>
condition not met

$$$$
>  <molecule>
COc1ccc(Cl)cc1C1=C(Br)C(=O)N(CC(C)C)/C1=C/c1ccccc1Br

>  <target-or-test-system>
Enterococcus faecalis

>  <assigned-label>
condition met

$$$$
>  <molecule>
COc1ccc(C)cc1C1=C(Br)C(=O)O/C1=C\c1ccccc1Cl

>  <target-or-test-system>
Enterococcus faecalis

>  <assigned-label>
condition met

$$$$
>  <molecule>
COc1ccc(Br)cc1C1=C(Br)C(=O)N(CC(C)C)/C1=C/c1cccc(Cl)c1

>  <target-or-test-system>
Enterococcus faecalis

>  <assigned-label>
condition not met

$$$$
>  <molecule>
COc1ccc(C)cc1C1=C(Br)C(=O)N(CC(C)C)/C1=C\c1ccccc1Cl

>  <target-or-test-system>
Enterococcus faecalis

>  <assigned-label>
condition not met

$$$$
>  <molecule>
COc1cccc(/C=C2/C(c3cc(Cl)ccc3OC)=C(Br)C(=O)N2CC(C)C)c1

>  <target-or-test-system>
Enterococcus faecalis

>  <assigned-label>
condition not met

$$$$
>  <molecule>
COc1ccc(Cl)cc1C1=C(Br)C(=O)N(CC(C)C)C1(O)Cc1ccccc1Br (stereo not drawn)

>  <target-or-test-system>
Enterococcus faecalis

>  <assigned-label>
condition not met

$$$$
>  <molecule>
COc1ccc(Br)cc1C1=C(Br)C(=O)N(CC(C)C)C1(O)Cc1cccc(Cl)c1 (stereo not drawn)

>  <target-or-test-system>
Enterococcus faecalis

>  <assigned-label>
condition met

$$$$
>  <molecule>
COc1cccc(/C=C2\C(c3cc(Cl)ccc3OC)=C(Br)C(=O)N2CC(C)C)c1

>  <target-or-test-system>
Enterococcus faecalis

>  <assigned-label>
condition met

$$$$
>  <molecule>
COc1ccc(C)cc1C1=C(Br)C(=O)N(CC(C)C)C1(O)Cc1ccccc1Cl (stereo not drawn)

>  <target-or-test-system>
Enterococcus faecalis

>  <assigned-label>
condition not met

$$$$
>  <molecule>
COc1ccccc1C1=C(Br)C(=O)N(CC(C)C)/C1=C\c1ccc(C(F)(F)F)cc1

>  <target-or-test-system>
Enterococcus faecalis

>  <assigned-label>
condition met

$$$$
>  <molecule>
COc1ccc(C)cc1C1=C(Br)C(=O)N(CC(C)C)/C1=C\c1cccc(Cl)c1

>  <target-or-test-system>
Enterococcus faecalis

>  <assigned-label>
condition met

$$$$
>  <molecule>
COc1ccccc1C1=C(Br)C(=O)N(CC(C)C)/C1=C/c1ccc(C(F)(F)F)cc1

>  <target-or-test-system>
Enterococcus faecalis

>  <assigned-label>
condition met

$$$$
>  <molecule>
COc1ccc(C)cc1C1=C(Br)C(=O)N(CC(C)C)C1(O)Cc1cccc(Cl)c1 (stereo not drawn)

>  <target-or-test-system>
Enterococcus faecalis

>  <assigned-label>
condition met

$$$$
>  <molecule>
COc1ccc(Br)cc1C1=C(Br)C(=O)N(CC(C)C)C1(O)Cc1ccc(Br)cc1 (stereo not drawn)

>  <target-or-test-system>
Enterococcus faecalis

>  <assigned-label>
condition met

$$$$
